Documented inhibition across a set of compounds
biological target: UniProt P30560; experiment: Displacement of [3H]arginine vasopressin from rat liver (AVP-V1a site) at 10 uM
Sequence (P30560 whole entry, looked up): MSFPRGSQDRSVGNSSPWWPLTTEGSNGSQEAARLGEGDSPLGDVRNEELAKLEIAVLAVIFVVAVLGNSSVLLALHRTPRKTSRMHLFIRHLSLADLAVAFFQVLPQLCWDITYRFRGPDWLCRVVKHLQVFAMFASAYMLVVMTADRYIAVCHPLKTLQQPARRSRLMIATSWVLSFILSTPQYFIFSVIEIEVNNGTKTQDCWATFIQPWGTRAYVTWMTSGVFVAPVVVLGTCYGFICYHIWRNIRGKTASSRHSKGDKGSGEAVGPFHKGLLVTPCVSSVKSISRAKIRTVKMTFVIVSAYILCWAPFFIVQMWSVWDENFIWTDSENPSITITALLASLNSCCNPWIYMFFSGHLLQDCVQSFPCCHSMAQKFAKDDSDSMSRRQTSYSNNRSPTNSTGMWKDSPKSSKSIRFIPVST
*1 amine or outer side, *2 acyl side, *3 side chain or, on linkers, in order; H or OH if unused. Where a SMILES comes first, the peptide text is derived from it. [ ]: non-standard residue; d: D form. X1 = C=CCN([C@H](Cc1ccccc1)C(=O)[*:2])[*:1]; dNMeF = CN[C@H](Cc1ccccc1)C(=O)O; Pip = O=C(O)[C@@H]1CCCCN1; dPip = O=C(O)[C@H]1CCCCN1; dNMeA = CN[C@H](C)C(=O)O
Dear colleague, please return just the value in %, with no unit written.

C[C@@H]1NC(=O)[C@@H](Cc2ccccc2)NC(=O)[C@@H]2CCCN2C(=O)[C@H](Cc2ccccc2)N(C)C(=O)[C@@H]2CCCCN2C(=O)[C@H]2CCCCN2C1=O    3
CC[C@H](C)[C@@H]1NC(=O)[C@H](C)NC(=O)[C@@H]2CCCN2C(=O)[C@@H](Cc2ccccc2)N(C)C(=O)[C@@H]2CCCCN2C(=O)[C@H]2CCCCN2C1=O    0
CC[C@H](C)[C@@H]1NC(=O)[C@@H](Cc2ccccc2)NC(=O)[C@@H]2CCCN2C(=O)[C@@H](C)N(C)C(=O)[C@@H]2CCCCN2C(=O)[C@H]2CCCCN2C1=O (cyclo(I[dPip][Pip][dNMeA]P[dF]))    20
CC[C@H](C)[C@@H]1NC(=O)[C@@H](Cc2ccccc2)NC(=O)[C@@H]2CCCN2C(=O)[C@@H](Cc2ccccc2)N(C)C(=O)[C@@H]2CCCN2C(=O)[C@H]2CCCCN2C1=O    33
CC[C@H](C)[C@@H]1NC(=O)[C@@H](Cc2ccccc2)NC(=O)[C@@H]2CCCN2C(=O)[C@@H](Cc2ccccc2)N(C)C(=O)[C@@H]2CCCCN2C(=O)[C@H]2CCCN2C1=O (cyclo(I[dP][Pip][dNMeF]P[dF]))    23

Give the measured inhibition of CC[C@H](C)[C@@H]1NC(=O)[C@@H](Cc2ccccc2)NC(=O)[C@@H]2CCCN2C(=O)[C@H](Cc2ccccc2)N(C)C(=O)[C@H](C)N(C)C(=O)[C@H]2CCCCN2C1=O . 25

Continue with C=CCN1C(=O)[C@@H]2CCCCN2C(=O)[C@H]2CCCCN2C(=O)[C@H]([C@@H](C)CC)NC(=O)[C@@H](Cc2ccccc2)NC(=O)[C@@H]2CCCN2C(=O)[C@H]1Cc1ccccc1 (cyclo(I[dPip][Pip][X1]P[dF])) 45
